Some molecules, each annotated with its measured Ai, transmittance at the absorption maximum wavelength.
Experiment: Absorption spectra of absorption membrane before and after high temperature/high humidity evaluation (Test Example 2)
Assay type: physicochemical
Details: absorption membrane before 85° C., 85% relative humidity, 120 hours
Source text: FIGS. 4 to 6 are the absorption spectra of the absorption membranes prepared in Test Example 1 using the absorbents of Embodiments 1 to 3, respectively. FIGS. 7 to 9 are the absorption spectrum of the absorption membrane prepared in Test Example using the absorbents of Comparative Examples 1 to 3, respectively. […] In Tables 4 and 5, ΔA is a value calculated as 100×(Af−Ai)/Ai, and Δλ is a value calculated as 100×(λf−λi)λi.
Express your answer in %, writing the number without its unit.

Quick note, Ai, transmittance at the absorption maximum wavelength for CCCCN1/C(=C\C=C2/CCC(/C=C/C3=[N+](CCCC)c4ccccc4C3(C)C)=C2Cl)C(C)(C)c2ccccc21 landed at 21.6

Continuing:
Quick note, Ai, transmittance at the absorption maximum wavelength for CC1(C)C(/C=C/C=C/C=C/C=C2\N(C[Si](C)(C)C)c3ccc4ccccc4c3C2(C)C)=[N+](C[Si](C)(C)C)c2ccc3ccccc3c21 landed at 33.5

Quick note, Ai, transmittance at the absorption maximum wavelength for CC1(C)C(/C=C/C2=C(Cl)C(=C/C=C3\N(C[Si](C)(C)C)c4ccccc4C3(C)C)/CC2)=[N+](C[Si](C)(C)C)c2ccccc21 landed at 11.5

Quick note, Ai, transmittance at the absorption maximum wavelength for CCCCN1\C(=C/C=C/C=C/C=C/C2=[N+](CCCC)c3ccccc3C2(C)C)C(C)(C)c2ccccc21 landed at 21.3

Quick note, Ai, transmittance at the absorption maximum wavelength for CC1(C)C(/C=C/C=C/C=C/C=C2\N(C[Si](C)(C)C)c3ccccc3C2(C)C)=[N+](C[Si](C)(C)C)c2ccccc21 landed at 11.5

Quick note, Ai, transmittance at the absorption maximum wavelength for CCCCN1\C(=C/C=C/C=C/C=C/C2=[N+](CCCC)c3ccc4ccccc4c3C2(C)C)C(C)(C)c2c1ccc1ccccc21 landed at 47.1
